Data provenance is patent US11820766B2.

# Target or system: human MGL from HeLa cells (Homo sapiens, UniProt Q99685)
# Construct: combining endogenously expressed MGL from HeLa cells with test compounds; endogenous in cells; host or cells: HeLa cells / cell homogenates
# Sequence (Q99685 whole entry): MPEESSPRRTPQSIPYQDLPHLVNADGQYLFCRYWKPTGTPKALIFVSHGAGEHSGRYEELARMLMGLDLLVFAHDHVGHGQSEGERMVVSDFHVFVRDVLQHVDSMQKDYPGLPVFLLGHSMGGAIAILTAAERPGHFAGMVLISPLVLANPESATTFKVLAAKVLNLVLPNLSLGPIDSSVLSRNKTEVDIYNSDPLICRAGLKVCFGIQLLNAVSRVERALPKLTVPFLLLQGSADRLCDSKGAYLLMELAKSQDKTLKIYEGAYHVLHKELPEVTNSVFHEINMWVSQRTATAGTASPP
# Experimental details: In vitro MGL activity assay: [glycerol-1,3-3H]-oleyl glycerol cleavage by MGL from HeLa cells
# Type: biochemical
# Run parameters: 300 nM [Glycerol-1,3-3H]-oleyl glycerol, one hour incubation
Provide the reported IC50 of each item.
Dear colleague, please return just the value in nM, with no unit written.

Per the records, this molecule ( Cn1nc2c(c1-c1ccccc1)CCN(C(=O)c1ccc3sccc3c1)C2 ) has IC50 equal to 136

Per the records, this molecule ( Cn1nc2c(c1-c1ccccc1)CCN(C(=O)c1cccc3ccccc13)C2 ) has IC50 equal to 13

Per the records, this molecule ( CN1CCOc2cc(C(=O)N3CCc4c(nn(C)c4-c4ccccc4)C3)ccc21 ) has IC50 equal to 290

Per the records, this molecule ( [2H]C([2H])([2H])n1nc2c(c1-c1cc(F)cc(F)c1)CCN(C(=O)c1ccc3ncccc3c1)C2C (centres unmarked) ) has IC50 equal to 13.8

Per the records, this molecule ( C[C@H]1c2nn(C)c(-c3cc(F)c(F)c(F)c3)c2CCN1C(=O)c1cccc(-n2nccn2)c1 ) has IC50 equal to 19.1

Per the records, this molecule ( CC1c2nn(C)c(-c3cn(C)c4ccccc34)c2CCN1C(=O)c1ccc2ncccc2c1 (centres unmarked) ) has IC50 equal to 1890

Per the records, this molecule ( C[C@H]1c2nn(C)c(-c3cc(F)c(F)c(F)c3)c2CCN1C(=O)c1cncc2cccnc12 ) has IC50 equal to 20

Per the records, this molecule ( C[C@H]1c2nn(C)c(-c3cccc(Cl)c3)c2CCN1C(=O)c1cnc2ccoc2c1 (single isomer, unassigned) ) has IC50 equal to 26.3
